Kindly supply the reported Imax values for the records listed here.
measurement.target: Cannabinoid receptor 2 (Homo sapiens)
Sequence (P34972 whole entry): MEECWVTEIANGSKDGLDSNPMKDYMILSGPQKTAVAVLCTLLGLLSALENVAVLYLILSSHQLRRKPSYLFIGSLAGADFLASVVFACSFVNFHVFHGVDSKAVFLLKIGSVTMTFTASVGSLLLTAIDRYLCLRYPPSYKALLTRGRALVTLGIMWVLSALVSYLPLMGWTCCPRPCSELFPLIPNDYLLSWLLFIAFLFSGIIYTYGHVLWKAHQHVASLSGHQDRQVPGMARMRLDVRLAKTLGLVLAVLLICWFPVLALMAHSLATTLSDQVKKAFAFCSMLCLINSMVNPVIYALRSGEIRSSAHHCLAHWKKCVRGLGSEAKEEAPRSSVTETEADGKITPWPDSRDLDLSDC
protocol.summary: Inhibition of [35S]GTP-gamma-S binding to human CB2 receptor expressed in CHO cells relative to SR-144528
Type: functional, cell-based
Answers are plain numbers, in %.

For orientation, consider the following solved cases.
                                smiles_text  unit_string  reported_value
0  CCCCCOc1c(OC)ccc2cc(C(=O)NCCc3c[nH]c4ccccc34)c(O)nc12            %              79
1  CCCCCOc1c(OC)ccc2cc(C(=O)Nc3ccccc3N)c(O)nc12            %              82
2  CCCCCOc1c(OC)ccc2cc(C(=O)NCCCc3ccccc3)c(=O)[nH]c12            %              82

Would you kindly look at the next entry?
Q: Look up Imax for this molecule: "CCCCCOc1c(OC)ccc2cc(C(=O)NCc3ccc4c(c3)OCO4)c(=O)[nH]c12"
Ans: 80

Every entry's value here was drawn from ChEMBL document CHEMBL1139010.
